Target: Human immunodeficiency virus type 1 integrase (Human immunodeficiency virus 1, UniProt Q7ZJM1)
Sequence (Q7ZJM1 whole entry): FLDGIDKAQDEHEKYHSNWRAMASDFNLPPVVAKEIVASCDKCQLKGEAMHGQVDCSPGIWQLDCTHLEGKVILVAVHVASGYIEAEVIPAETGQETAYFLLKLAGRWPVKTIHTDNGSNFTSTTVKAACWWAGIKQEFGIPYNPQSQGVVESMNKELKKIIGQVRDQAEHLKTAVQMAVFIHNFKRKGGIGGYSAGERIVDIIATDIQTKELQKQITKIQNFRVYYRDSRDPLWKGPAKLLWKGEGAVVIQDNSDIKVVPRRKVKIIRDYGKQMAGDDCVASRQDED
Endpoint Name: IC50 (µM)

[1] CC(C)c1c(Cc2ccccc2)[nH]c(=O)n(CCCCc2ccc(C(=O)/C=C(\O)C(=O)O)cc2)c1=O
[2] CC(C)c1c(Cc2ccccc2)n(COCCCc2ccc(C(=O)/C=C(\O)C(=O)O)cc2)c(=O)[nH]c1=O
Enquiry: Between item 1 and item 2 , which reported IC50 is smaller? Use the label to indicate which entry you chose.
Return: 2
(2: 8.2 µM, 1: 37 µM)

* * *

Target: Human immunodeficiency virus type 1 reverse transcriptase (Human immunodeficiency virus 1)
pIC50: −log10 of the molar value.
Endpoint Name: pIC50

CCc1c(Cc2cc(C)cc(C)c2)n(COCc2ccc(Cc3cccc(C(=O)/C=C(\O)C(=O)O)c3)cc2)c(=O)[nH]c1=O: 7.55
CC(C)c1c(Cc2ccccc2)n(COCc2ccc(Cc3cccc(C(=O)/C=C(\O)C(=O)O)c3)cc2)c(=O)[nH]c1=O: 6.80

[1] Cc1cc(C)cc(Cc2c(C(C)C)c(=O)[nH]c(=O)n2COCc2ccc(Cc3cccc(C(=O)/C=C(\O)C(=O)O)c3)cc2)c1
[2] CCc1c(Cc2ccccc2)n(COCc2ccc(Cc3cccc(C(=O)/C=C(\O)C(=O)O)c3)cc2)c(=O)[nH]c1=O
Enquiry: I'm curious, which of these has a smaller pIC50 number: 1 or 2 ? Write the label of whichever entry you select.
Return: 2

* * *

Target: Human immunodeficiency virus type 1 integrase (Human immunodeficiency virus 1, UniProt Q7ZJM1)
Endpoint Name: IC50 (µM)

[P] CCc1c(Cc2cc(C)cc(C)c2)n(COCc2ccc(Cc3cccc(C(=O)/C=C(\O)C(=O)O)c3)cc2)c(=O)[nH]c1=O
[Q] Cc1cc(C)cc(Cc2c(C(C)C)c(=O)[nH]c(=O)n2COCc2ccc(Cc3cccc(C(=O)/C=C(\O)C(=O)O)c3)cc2)c1
Enquiry: Please indicate which entry, P or Q , has the lower recorded IC50 value. Give the chosen item's label as your response.
Return: P

* * *

Test: Therapeutic index, ratio of TC50 for human CEM-SS cells to EC50 for HIV1 3B
Assay type: cell-based
Conditions: read-out: TI
List of selectivity ratio values.
Keep the answer to the number alone.

CCc1c(Cc2ccccc2)n(COCc2ccc(Cc3cccc(C(=O)/C=C(\O)C(=O)O)c3)cc2)c(=O)[nH]c1=O: 56

Consider the additional compound presented here.
Enquiry: Supply measured selectivity ratio of Cc1cc(C)cc(Cc2c(C(C)C)c(=O)[nH]c(=O)n2COCc2ccc(Cc3cccc(C(=O)/C=C(\O)C(=O)O)c3)cc2)c1 in your reply.
Return: 560

* * *

Assay: Cytotoxicity against human CEM-SS cells after 6 days by MTS assay
Assay type: cell-based
Conditions: read-out: TC50
Each item that follows carries a reported CC50 at 144 h.
API: value field is a number in µM; no unit string.

CCc1c(Cc2ccccc2)n(COCc2ccc(Cc3cccc(C(=O)/C=C(\O)C(=O)O)c3)cc2)c(=O)[nH]c1=O: 32

Enquiry: Could you please provide reported CC50 at 144 h for Cc1cc(C)cc(Cc2c(C(C)C)c(=O)[nH]c(=O)n2COCc2ccc(Cc3cccc(C(=O)/C=C(\O)C(=O)O)c3)cc2)c1 ? Thanks!
Return: 96

* * *

Target: Human immunodeficiency virus type 1 reverse transcriptase (Human immunodeficiency virus 1) (UniProt Q72547)
Assay: Inhibition of HIV 3B reverse transcriptase at 100 uM using [3H]TTP as a tracer by scintillation counting
Endpoint Name: inhibition (%)

CC(C)c1c(Cc2ccccc2)[nH]c(=O)n(CCCc2ccc(C(=O)/C=C(\O)C(=O)O)cc2)c1=O: 0
CC(C)c1c(Cc2ccccc2)n(COCCCc2ccc(C(=O)/C=C(\O)C(=O)O)cc2)c(=O)[nH]c1=O: 100
CCc1c(Cc2ccccc2)nc(SCc2ccc(C(=O)/C=C(\O)C(=O)O)cc2)[nH]c1=O: 0
CC(C)c1c(Cc2ccccc2)[nH]c(=O)n(CCCCCCc2ccc(C(=O)/C=C(\O)C(=O)O)cc2)c1=O: 0
CC(C)c1c(Cc2ccccc2)[nH]c(=O)n(CCCCc2ccc(C(=O)/C=C(\O)C(=O)O)cc2)c1=O: 0

[I] CCc1c(Cc2ccccc2)nc(SCc2ccc(Cc3cccc(C(=O)/C=C(\O)C(=O)O)c3)cc2)[nH]c1=O
[II] CC(C)c1c(Cc2ccccc2)n(COCCc2ccc(C(=O)/C=C(\O)C(=O)O)cc2)c(=O)[nH]c1=O
Enquiry: Param pair: I , II . Output: the one whose inhibition is numerically greater. # reply format: chosen label
Return: II

* * *

Target: Human immunodeficiency virus type 1 reverse transcriptase (Human immunodeficiency virus 1) (UniProt Q72547)
Assay: Inhibition of HIV 3B reverse transcriptase at 10 uM using [3H]TTP as a tracer by scintillation counting
Endpoint Name: inhibition (%)

CC(C)c1c(Cc2ccccc2)[nH]c(=O)n(CCCc2ccc(C(=O)/C=C(\O)C(=O)O)cc2)c1=O: 0
CC(C)c1c(Cc2ccccc2)[nH]c(=O)n(CCc2ccc(C(=O)/C=C(\O)C(=O)O)cc2)c1=O: 0
CC(C)c1c(Cc2ccccc2)n(COCCCc2ccc(C(=O)/C=C(\O)C(=O)O)cc2)c(=O)[nH]c1=O: 100
CC(C)c1c(Cc2ccccc2)[nH]c(=O)n(CCCCc2ccc(C(=O)/C=C(\O)C(=O)O)cc2)c1=O: 0
CCc1c(Cc2ccccc2)nc(SCc2ccc(C(=O)/C=C(\O)C(=O)O)cc2)[nH]c1=O: 0

[I] CC(C)c1c(Cc2ccccc2)[nH]c(=O)n(CCCCCCc2ccc(C(=O)/C=C(\O)C(=O)O)cc2)c1=O
[II] CC(C)c1c(Cc2ccccc2)n(COCCc2ccc(C(=O)/C=C(\O)C(=O)O)cc2)c(=O)[nH]c1=O
Enquiry: When their inhibition values are compared, which is larger, I or II ? // output: label of the selected item
Return: II
(II: 100%, I: 0%)

* * *

Biological target: Human immunodeficiency virus type 1 integrase (Human immunodeficiency virus 1, UniProt Q7ZJM1)
Endpoint Name: IC50 (µM)

CC(C)c1c(Cc2ccccc2)[nH]c(=O)n(CCc2ccc(C(=O)/C=C(\O)C(=O)O)cc2)c1=O: 8

[I] CC(C)c1c(Cc2ccccc2)[nH]c(=O)n(CCCc2ccc(C(=O)/C=C(\O)C(=O)O)cc2)c1=O
[II] CC(C)c1c(Cc2ccccc2)n(COCCc2ccc(C(=O)/C=C(\O)C(=O)O)cc2)c(=O)[nH]c1=O
Enquiry: // pick larger IC50 from pair: I vs II Lab note: record the label of whichever item you select.
Return: I

* * *

Target: Human immunodeficiency virus type 1 integrase (Human immunodeficiency virus 1, UniProt Q7ZJM1)
Below, each entry is listed with its recorded IC50.

Reference set (2 entries):
CCc1c(Cc2ccccc2)n(COCc2ccc(Cc3cccc(C(=O)/C=C(\O)C(=O)O)c3)cc2)c(=O)[nH]c1=O: 16 µM
CCc1c(Cc2ccccc2)nc(SCc2ccc(C(=O)/C=C(\O)C(=O)O)cc2)[nH]c1=O: > 100 µM

Enquiry: Complete the entry with IC50 for CCc1c(Cc2ccccc2)nc(SCc2ccc(Cc3cccc(C(=O)/C=C(\O)C(=O)O)c3)cc2)[nH]c1=O
Return: > 100 µM
